Biological target: c-Cbl (Homo sapiens (Human), UniProt P22681)
Sequence (P22681 47-435): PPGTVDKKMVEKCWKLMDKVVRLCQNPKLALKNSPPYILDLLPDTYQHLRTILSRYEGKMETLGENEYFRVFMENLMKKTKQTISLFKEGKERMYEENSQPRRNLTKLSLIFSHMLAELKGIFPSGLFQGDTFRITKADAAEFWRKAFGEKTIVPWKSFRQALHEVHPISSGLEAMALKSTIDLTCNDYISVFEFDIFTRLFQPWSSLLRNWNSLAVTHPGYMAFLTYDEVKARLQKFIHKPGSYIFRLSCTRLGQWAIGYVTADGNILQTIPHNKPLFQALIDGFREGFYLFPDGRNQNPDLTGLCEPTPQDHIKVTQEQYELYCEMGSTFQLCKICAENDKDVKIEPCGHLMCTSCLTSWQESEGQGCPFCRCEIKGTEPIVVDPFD
Experiment: C-Cbl LCK Ub TR-FRET assay (c-cbl Lck HTRF)
Type: biochemical
pIC50: −log10 of the molar value.
measurement-kind: pIC50

C[C@@H](NC1(C)CCC1)c1cc2c(c(C(F)(F)F)c1)CN(c1cccc(C3(Cc4nncn4C)CC(F)(F)C3)c1)C2=O; 7.89

A: CSc1cc(C2(Cc3nncn3C)CCC2)cc(N2Cc3c(cc(CNC4(C)CCC4)cc3C(F)(F)F)C2=O)n1
B: Cn1cnnc1[C@@H](F)[C@@](C)(F)c1cccc(N2Cc3c(cc(CN4CC(C)(F)C4)cc3C(F)(F)F)C2=O)c1
C: CC(C)[C@H]1CN(C)CCN1Cc1cc2c(c(C(F)(F)F)c1)CN(c1cccc(C3([C@H](F)c4nncn4C4CCCCC4)COC3)c1)C2=O
List from greatest to least pIC50. Returns: the labels arranged in the requested order.
A, C, B
(A: 8.08, C: 5.51, B: 4.96)
